- measured.on: T1, murine TIM-3 extracellular domain protein with hFc tag (mTIM-3-hFc) (mouse, UniProt Q8VIM0 29-191)
- T1 construct: also called mouse TIM-3 extracellular domain protein; not shown: human IgG Fc fragment (hFc) of the pCpC vector
- T1 chain: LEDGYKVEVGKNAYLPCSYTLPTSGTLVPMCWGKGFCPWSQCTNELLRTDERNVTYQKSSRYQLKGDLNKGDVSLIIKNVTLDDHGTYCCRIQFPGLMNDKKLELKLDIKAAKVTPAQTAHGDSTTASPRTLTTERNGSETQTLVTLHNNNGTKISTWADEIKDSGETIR
- experiment.description: ELISA, coated mouse TIM-3 ECD protein, 0 nM antibody
Provide the recorded OD450 for the entries that follow.
Numbers only.

binder: 134H3G6 fully human TIM-3 antibody (human IgG4, kappa) (antibody, V domains shown) VH: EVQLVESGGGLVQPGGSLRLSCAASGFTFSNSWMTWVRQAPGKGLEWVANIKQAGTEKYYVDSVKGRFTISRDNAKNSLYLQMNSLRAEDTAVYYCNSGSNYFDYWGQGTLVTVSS VL: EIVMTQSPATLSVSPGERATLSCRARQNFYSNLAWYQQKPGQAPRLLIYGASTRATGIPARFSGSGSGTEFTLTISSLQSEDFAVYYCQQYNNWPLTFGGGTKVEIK
OD450: 0.22
--
binder: 18D2H2 fully human TIM-3 antibody (human IgG4, kappa) (antibody, V domains shown) VH: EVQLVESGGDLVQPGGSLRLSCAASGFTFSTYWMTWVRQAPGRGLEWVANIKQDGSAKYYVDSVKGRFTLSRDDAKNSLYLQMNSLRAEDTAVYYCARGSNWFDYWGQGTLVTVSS VL: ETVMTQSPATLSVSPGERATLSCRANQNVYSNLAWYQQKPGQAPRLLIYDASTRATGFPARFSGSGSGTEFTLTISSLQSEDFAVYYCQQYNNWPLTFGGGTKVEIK
OD450: 0.22

Items follow; give OD450 for each.
1. 34B6D8 fully human TIM-3 antibody (human IgG4, kappa) (antibody, V domains shown) VH: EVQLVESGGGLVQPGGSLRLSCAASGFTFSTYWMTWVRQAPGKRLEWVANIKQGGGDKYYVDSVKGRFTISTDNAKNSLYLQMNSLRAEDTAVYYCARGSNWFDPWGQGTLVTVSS VL: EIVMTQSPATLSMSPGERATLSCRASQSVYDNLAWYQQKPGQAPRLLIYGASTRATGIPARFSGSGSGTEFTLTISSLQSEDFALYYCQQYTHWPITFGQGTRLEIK
2. 7A4F10 fully human TIM-3 antibody (human IgG4, kappa) (antibody, V domains shown) VH: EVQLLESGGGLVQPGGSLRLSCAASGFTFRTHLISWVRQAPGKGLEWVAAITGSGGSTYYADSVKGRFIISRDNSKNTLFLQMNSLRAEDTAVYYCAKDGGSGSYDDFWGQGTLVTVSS VL: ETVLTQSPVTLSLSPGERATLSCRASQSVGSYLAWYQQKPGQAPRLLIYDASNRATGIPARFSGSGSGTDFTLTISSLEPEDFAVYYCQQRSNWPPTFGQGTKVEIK
3. 57F4E5 fully human TIM-3 antibody (human IgG4, kappa) (antibody, V domains shown) VH: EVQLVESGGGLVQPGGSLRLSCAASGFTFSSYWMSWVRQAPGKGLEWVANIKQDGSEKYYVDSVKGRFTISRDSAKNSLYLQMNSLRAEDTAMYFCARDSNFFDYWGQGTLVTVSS VL: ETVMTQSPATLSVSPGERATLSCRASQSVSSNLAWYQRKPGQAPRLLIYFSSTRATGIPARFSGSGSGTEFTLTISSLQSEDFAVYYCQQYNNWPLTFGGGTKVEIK
4. 39E5H1 fully human TIM-3 antibody (human IgG4, kappa) (antibody, V domains shown) VH: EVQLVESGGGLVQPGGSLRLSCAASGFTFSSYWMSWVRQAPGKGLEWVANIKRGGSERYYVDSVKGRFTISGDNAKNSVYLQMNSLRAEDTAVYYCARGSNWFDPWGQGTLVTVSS VL: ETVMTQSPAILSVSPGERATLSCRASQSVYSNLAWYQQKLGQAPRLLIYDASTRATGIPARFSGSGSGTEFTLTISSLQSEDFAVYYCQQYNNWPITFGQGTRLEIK

**Result**
[0.24, 0.23, 0.24, 0.24]

Cited source for all entries: patent US20220033501A1
